# Test system: MS2 coat protein
# Assay Protocol: apparent KD of MS2 coat protein; designed switch direction (-1 OFF switch, 1 ON switch): -1; higher = weaker reporter binding
# Condition: input ligand: FMN 200 uM
Recorded Endpoint: apparent KD of MS2 coat protein (nM)
Please reply with the bare figure in nM and do not write the unit itself.

Consider the worked cases shown below.
Incoming: Name the recorded apparent KD of MS2 coat protein of the sequence listed here: GGUAAAGGCCGAGGAUAUCGGAAAGGAAGUGUACGAGAAGGCGGCAAAAGAACAUGAGGAUCACCCAUGUGGGCCGAUCUUCCG [16th something] (Eterna round: R96, puzzle: Exclusion NG 1)
Outgoing: 23.6

Incoming: Name the recorded apparent KD of MS2 coat protein of the sequence listed here: UAAUUGUGAGGAUAUUCGUUGUUCUCGGAGACGAGAAUAACGGAGAAGGCACAUGAGGAUCACCCAUGUUCCUU [Mat - Exclusion 4 - JL Mod - D13] (Eterna round: R97, puzzle: Exclusion 4)
Outgoing: 98.4

Next:
Incoming: Name the recorded apparent KD of MS2 coat protein of the sequence listed here: AAUCAGUGUGUGAGGAUAUUGGUGGAAUGACUUAUUAAGAAGGCACAUGAGGAUCACCCAUGUGGGAAGUCACG [JR_BMEx4_Sub016] (Eterna round: R97, puzzle: Brourd's mod of Exclusion 4)
Outgoing: 11.6
